Measured Percent Effect values are reported for all entries that follow.
# assayedSystem: Ubiquitin-activating enzyme e1, putative (Leishmania donovani (strain BPK282A1)) (UniProt E9BSI1)
# Sequence (E9BSI1 as listed by the source): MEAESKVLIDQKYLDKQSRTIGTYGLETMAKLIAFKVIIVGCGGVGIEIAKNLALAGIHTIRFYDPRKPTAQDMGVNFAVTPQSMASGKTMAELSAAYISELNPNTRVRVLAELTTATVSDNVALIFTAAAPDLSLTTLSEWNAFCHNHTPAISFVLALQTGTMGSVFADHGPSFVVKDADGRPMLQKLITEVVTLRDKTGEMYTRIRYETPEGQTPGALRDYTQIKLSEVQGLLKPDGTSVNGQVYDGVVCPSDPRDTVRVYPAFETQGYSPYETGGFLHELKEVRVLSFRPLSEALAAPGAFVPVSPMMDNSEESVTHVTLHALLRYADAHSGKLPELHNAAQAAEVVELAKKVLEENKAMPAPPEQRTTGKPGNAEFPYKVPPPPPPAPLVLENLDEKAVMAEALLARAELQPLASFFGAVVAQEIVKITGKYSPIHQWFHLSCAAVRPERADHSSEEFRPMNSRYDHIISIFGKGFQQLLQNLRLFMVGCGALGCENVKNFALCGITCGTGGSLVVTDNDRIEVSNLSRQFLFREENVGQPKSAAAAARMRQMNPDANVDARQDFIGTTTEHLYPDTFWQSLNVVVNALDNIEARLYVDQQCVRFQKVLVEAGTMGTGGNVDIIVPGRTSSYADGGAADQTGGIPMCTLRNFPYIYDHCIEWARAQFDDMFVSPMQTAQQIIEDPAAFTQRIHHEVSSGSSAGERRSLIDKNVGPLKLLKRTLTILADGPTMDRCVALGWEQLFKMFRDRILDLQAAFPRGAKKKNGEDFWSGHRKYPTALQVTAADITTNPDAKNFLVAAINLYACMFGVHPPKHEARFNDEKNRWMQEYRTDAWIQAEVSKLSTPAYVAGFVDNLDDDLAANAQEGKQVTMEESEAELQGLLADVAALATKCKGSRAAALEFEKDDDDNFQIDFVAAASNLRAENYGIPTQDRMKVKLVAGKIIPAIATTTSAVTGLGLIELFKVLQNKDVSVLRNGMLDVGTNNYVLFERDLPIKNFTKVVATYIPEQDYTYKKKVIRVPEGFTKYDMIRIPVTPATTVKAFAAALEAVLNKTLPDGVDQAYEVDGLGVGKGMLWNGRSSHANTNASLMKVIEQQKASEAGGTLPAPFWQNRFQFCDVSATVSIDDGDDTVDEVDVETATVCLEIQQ
# assayProtocol: Leishmania donovani Ubiquitin Activating Enzyme (LdE1)
# Assay type: functional
# Parameters: scale not given: direction of the effect not stated beside the values
# assaySetup: 30 µM
Measured potencies and affinities stand elsewhere.
propertyMeasured: Percent Effect (%)

compound: CC[C@@H]1N(Cc2ccsc2)CCC[C@]12CCC(=O)N2C
propertyMeasured: Percent Effect
recordedMeasurement: 3.9
--
compound: c1ccc(-c2cnc(CNC3CCCN(c4cccnn4)C3)o2)cc1 (configuration not stated)
propertyMeasured: Percent Effect
recordedMeasurement: -23.1
--
compound: COc1ccc(NC(=O)Cn2nc(C)ccc2=O)cc1OC
propertyMeasured: Percent Effect
recordedMeasurement: -1.33
--
compound: COCCN1CC[C@]2(CN(C(=O)c3cccs3)C[C@H]2C)C1=O
propertyMeasured: Percent Effect
recordedMeasurement: 1.3
--
compound: COc1cc(CN(C)C(=O)Nc2cc(C)on2)ccc1SC
propertyMeasured: Percent Effect
recordedMeasurement: 5.41
--
compound: c1cnc(N2CCC3(CCN(CC4CC4)CC3)CC2)nc1
propertyMeasured: Percent Effect
recordedMeasurement: 3.9
--
compound: NC(=O)Cn1cc(NC(=O)N2CCCC2)cn1
propertyMeasured: Percent Effect
recordedMeasurement: 12.8
--
compound: CCc1nc(CN2CCN(C(=O)COCc3ccccc3)CC2)no1
propertyMeasured: Percent Effect
recordedMeasurement: 8.11
--
compound: CC(NC(=O)Cc1cccs1)c1nnc2n1CCCCC2 (configuration not stated)
propertyMeasured: Percent Effect
recordedMeasurement: 10.8
--
compound: Cc1c(F)cc(C(=O)O)cc1S(=O)(=O)Nc1ccc2c(c1)OCCO2
propertyMeasured: Percent Effect
recordedMeasurement: 5.13
--
compound: O=C(c1cccnc1)N1CCn2nnc(COc3cccnc3)c2C1
propertyMeasured: Percent Effect
recordedMeasurement: 1.3
--
compound: Cc1cc(C)n(CC2CCCN2C(=O)c2ccc(C(N)=O)cn2)n1 (configuration not stated)
propertyMeasured: Percent Effect
recordedMeasurement: 16.5

* * *

# assayedSystem: Ubiquitin-activating enzyme e1, putative (Leishmania donovani (strain BPK282A1))
# assayProtocol: Leishmania donovani Ubiquitin Activating Enzyme (LdE1)
# Format: functional
# Design: scale not given: direction of the effect not stated beside the values
# assaySetup: 30 µM
Results with a measured potency or affinity are listed apart.

molecule: c1coc(-c2noc(CN3CCCC(Cn4cncn4)C3)n2)c1 (stereo unspecified)
assayedSystem: Ubiquitin-activating enzyme e1, putative (Leishmania donovani (strain BPK282A1))
unitDescriptor: %
Percent Effect: 7.59
--
molecule: CCn1ccnc1CN1CCN(CC(O)Cn2cccn2)CC1 (stereo unspecified)
assayedSystem: Ubiquitin-activating enzyme e1, putative (Leishmania donovani (strain BPK282A1))
unitDescriptor: %
Percent Effect: 0
--
molecule: Cc1cc(CC(=O)NCc2ccnc(OCC(F)(F)F)c2)no1
assayedSystem: Ubiquitin-activating enzyme e1, putative (Leishmania donovani (strain BPK282A1))
unitDescriptor: %
Percent Effect: -5.26
--
molecule: O=C1CC(c2cccnc2)C2(CCN(C(=O)c3ccncc3)CC2)N1 (stereo unspecified)
assayedSystem: Ubiquitin-activating enzyme e1, putative (Leishmania donovani (strain BPK282A1))
unitDescriptor: %
Percent Effect: 10.8
--
molecule: Cc1ccc(CN2CC[C@H]3C[C@@H](c4nc(C5CC5)cs4)O[C@@H]3C2)o1
assayedSystem: Ubiquitin-activating enzyme e1, putative (Leishmania donovani (strain BPK282A1))
unitDescriptor: %
Percent Effect: 2.6
--
molecule: CCN(CC)C(CNC(=O)c1ccc(S(C)(=O)=O)cc1)c1ccco1 (stereo unspecified)
assayedSystem: Ubiquitin-activating enzyme e1, putative (Leishmania donovani (strain BPK282A1))
unitDescriptor: %
Percent Effect: 2.7
